B1: HDV Ribozyme (parent)
chain: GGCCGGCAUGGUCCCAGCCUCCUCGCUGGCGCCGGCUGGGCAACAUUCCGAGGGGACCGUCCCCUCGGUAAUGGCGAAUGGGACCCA

variants of: B1; assay: self-cleavage, relative activity (ratio to wild type); higher = more cleavage; co-transcriptional
Classification by self-cleavage | ranges: low band: < 0.1; middle band: ≥ 0.1 and < 0.6; high band: ≥ 0.6

• G2C C33G = low band
• G6U A71C = middle band
• G52A A71G = high band
• C13U A56U = middle band
• C75U A78G = middle band
• C33G G34C = low band
• G29C A87C = low band
• C3A U72A = low band
• C21A G80A = low band
• C24A G40A = high band

**Q:** Sort G73U A78C into one of the categories.
**A:** middle band

**Q:** Record: C49G C85A
**A:** high band

**Q:** Please answer likewise for C49G G67U
**A:** high band

**Q:** How about this variant: C36A C86U
**A:** middle band

**Q:** Now the variant A45U G52A
**A:** high band

**Q:** Same again, this time with G35U C64G
**A:** middle band

**Q:** # iterate: A77G C86U
**A:** high band

**Q:** Note, next up: C33A A71U
**A:** low band

**Q:** Subsequent entry: G29U C86G
**A:** low band

**Q:** G53U C62G , same question.
**A:** high band

**Q:** Same read-out for U65C A77G ?
**A:** high band

**Q:** Now this one: G31C C32G
**A:** low band

**Q:** // next record C22A G50C
**A:** middle band

**Q:** Entry to check: U37G G53U
**A:** middle band

**Q:** Then G2U A78U ?
**A:** low band

**Q:** Same for C32A A87C
**A:** middle band

**Q:** How about this variant: C3G C48A
**A:** high band

**Q:** Then this variant: C48G A77G
**A:** high band
